methodDescription: qHTS assay to identify small molecule agonists of the NFkB signaling pathway (AID 1159509)
conditionContext: NFkB-bla ME-180 cells, beta-lactamase FRET ratio, 5 h; series mostly up to 61 µM
Records with an inconclusive call do not appear. Active and inactive are the calls of the source. The call rests on the fitted dose curve; in most records, active means well fitted curve in the direction sought with a large enough effect in the signal ratio in the repeat runs (not every such curve was filed as active); inconclusive means weak or mixed curves, or a change in a side signal; inactive means no such curve, though single readings can be large or run the other way; the % refers to the signal ratio.
parameterMeasured: outcome

Use these answered entries as a reference point.
INSERT INTO assay_data (compound, parametermeasured, result) VALUES
  ('Cc1c(N(C)CS(=O)(=O)O)c(=O)n(-c2ccccc2)n1C', 'outcome', 'inactive'),
  ('CC(=O)CCC(C)C', 'outcome', 'inactive'),
  ('CC(=O)c1ccc(S(=O)(=O)NC(=O)NC2CCCCC2)cc1', 'outcome', 'inactive'),
  ('Cc1cccc(Nc2cc(Cl)nc(SCC(=O)O)n2)c1C', 'outcome', 'inactive'),
  ('OC[C@@H](O)[C@@H](O)[C@H](O)[C@H](O)CO', 'outcome', 'inactive'),
  ('NC(=O)NO', 'outcome', 'inactive'),
  ('C[C@]12CC[C@@H]3c4ccc(O)cc4C[C@@H](CCCCCCCCCS(=O)CCCC(F)(F)C(F)(F)F)[C@H]3[C@@H]1CC[C@@H]2O (some centres not stated)', 'outcome', 'inactive'),
  ('COc1ccc(C(=O)c2ccccc2)c(O)c1', 'outcome', 'inactive'),
  ('OCCCc1ccccc1', 'outcome', 'inactive'),
  ('NC(=O)c1ccc([N+](=O)[O-])cc1Cl', 'outcome', 'inactive');

Q: Read off the recorded outcome for `C[C@]12C=CC(=O)C=C1CC[C@@H]1[C@@H]2C(=O)C[C@@]2(C)[C@H]1CC[C@]2(O)C(=O)CO`
A: inactive

Q: Read off the recorded outcome for `Cc1cccc(C)c1O`
A: inactive
